# protease stability score listing for each entry below
- methodSummary: protease stability score; higher = more stable; yeast display proteolysis, trypsin and chymotrypsin;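 further: relative to predicted unfolded state with 0 unfolded-like and 1 meaning tenfold more protease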
Give only the figure.

Example entries begin here.
DDMERHNRWFLRDLIHAIVTGDEELEERLFDPNAKVHIDGVTFIGRELVEFLRKRVDHRRMHVKRTDSQGEYLINHTELILHINGKDVRTDTVWIFHKFNGQWVVHTMEVK; 0.815
SEEEHDVERSIKHFLHILETGDWKELYEQMDPNVRIEIDGKFIIGREASVHHFNRYDHHRSRIEIKHVDVYGDKLNVHGHIHEHFSVNGKDITRSMRVILHARKVDGQWIHTEVRYK; 1.32
SEDHEAAHEVIREWEKVHKTGDEHIFTQLLDPHMRIEIGDKRFHGRDEAVTHFRENLTHWRIHRMEMEDVNSQGEYIIYHVQNFVRINGKVVILDLTIIILKVDGRWVIHSIHIK; 1.24
DEERRHFEHFFHLWEQIMVTGDEDMARMLADPNVRIQVGDKKYHGREHFAELIKHLRVERIRIHTFRLYDGRIELIIHVHGNVNGQRDEFETRSHTIKVDGVWVIHSFHID; 1.6
DEDEKNLEKVAHDFIRATETGNEKILHELLDPNTREEINGVDLHGRETIAKFFLDIRRNLGIKVRMRLRDWKIYNGVVELDTEVIIDVGDKRIEHKVVIYVVKYNGRWLIDKIEWI; 1.81
DEDEELIEKLLRLEEFAHKTGDERIMEELADPNTRLDINGRREHGMESFIRWLREARYTHFIWRDKIEIGEKMEIQGEVEGTYNGVRHRTEVILFVEKINGRWIIKEIEVR; 1.76

Entry `DETERWAHLMLKLMQRYQETGDEDSLLELMDPEAKIDINGKEIHGREEWREHRYHHLRELGHTNIDVRVHLRRMHNVGDKANVRGELRININGKKLSVDVIIIILKIDGRWVIESLRLE` ; protease stability score = 0.736

Quick note, protease stability score for `SEREEDTEHHMRMLIKDHETGDWRSWKKLVDPHVKLEINGREHHGRELALHMFRRVDHIESTVRDRTIQGDKVHHDGHLIINVDGVNIIVRSEIILIKVDGQWRIEILIFR` landed at 0.957

Recorded protease stability score (sequence `SEEERETRKIFEDLLKTMETGDWRHLHRLIDPNARLIVNGQEFHGREDLIRLLEQLRIRSMRITDVRNQGNKSHVDGTVEGEWNGRTDNNRTEVHLVVVDGVLKHVEFHLH` ): 1.47

GET /value?item= `DEEEELVREFLHRLKQSHETGDEKMYRENADPDVRIEVNGVTIHGMERATRWASEMRFKHEELRHIEVDENHVHIDGIVKGRINGRDVETKVHFHVRKVNGVWLLKRIKFT` &field=protease stability score returns 0.956

The sequence listed as `SEEEEMIEKLIRLLVKAHETGDWDTEHELMDPHVRIDINGKEIIGREDWHEHVKRMGFKHSRVEIRIRHLTTQGEKIHIHGELRVIYDIDGRTIDRSTEVHYHLRKINGKWLITEIEIR` has a reported protease stability score of 1.69

The measured protease stability score associated with `DEEKQDMDTAIKIFVEEYKTGDEENLLRNMDPEARVRQGDKHFHGREEVWKFWRRLFHDAGLDNVNVELRHITSQGNKIEVRGVLRIGDKELDVEFILKKVDGRWLIKFILFR` reads 1.91

Reported protease stability score of `DEEEKLATIVMELIEETWETGDEDLFEQLADPNVRVEIGDKVYIGREIALEWFVREIRKRGAELKHTTTHNLDVQGDKVNNDMKVNGNINGRVVIFTTHLDVRKINGKWFLRSISFK` : 1.29

protease stability score in this record for `SEDDEITHYILQLWLDLVQTGDEEKLTDLHDPHVRNRINGREKHGRERAAELLSRLKKALGIDHIHRLMIEDFRIQGEKIQLHVRIKQEINGQEFTRSIELILLKINGRWSVESIDIR` : 1.42

Noted for `HEQDEAWDVINRDLAQSIETGDEHTERELLDPNVRIDFDGVKLHGRDEWHDFVRKELEHLGVDRIDIRIEIHNSKYQGEKVDSDTELKIRYGDKHVRIKTRLILHKIDGRWLVKSIQIN` : its protease stability score reads 1.1

Sure, the documented protease stability score for `SEEDRDRHKALELIRESSRTGNEELTSRLADPHVRLVFNGRDVHGREEMVRYMHEFGIDHLHIDRLHVQGDKIHIEGSNDWNGVVTELHVLMVKVNGRWRIREVEWR` is 1.23

Recorded result, `TEDDENAKMIMHLLYNHMKTGDFDTLVDMVDPHARNIIDGRELVGWEHFYRWLHELGFNHNELRVRDIKHFDGKVDVDVELILNVGDKHLRIRTTFIVRKVNGRWFIESIRLK` , protease stability score: 1.38

Measured protease stability score, `HDMEERSKHVHHIILRSLRTGDEDAYERLADPDTRLHVGDKNIHGRESIRNIWREILERIPNMRIELELEDSEIVGDYIYLKINLRMNFDGREVEHEIRIVSLKINGRWVEKSVHFR` : 0.591

Sample `DEIEKVLEISYRLMHESWRTGDEDHLRDLIDPHARVIIDGRTYHGRDAMHLFVDELLREFGITQVDIEMKRIHVQGDKVESHHDINFNGQRVEVDISFHKVNGRWIAESVTWR` ; protease stability score observed: 1.24
